Assay: Stability of peptides in human plasma
Type: in vitro ADME
Details: human, plasma
Where a SMILES comes first, the peptide text is derived from it. [ ]: non-standard residue; d: D form. ξ: configuration not given here. ξαMePhe(2,6-F2) = CC(N)(Cc1c(F)cccc1F)C(=O)O; hArg = N=C(N)NCCCC[C@H](N)C(=O)O; Nle = CCCC[C@H](N)C(=O)O; Ac5c = NC1(C(=O)O)CCCC1
TEST READOUT: half-life (h)

1) CCCC[C@H](NC(=O)C(C)(Cc1c(F)cccc1F)NC(=O)[C@H](CCC(N)=O)NC(=O)[C@@H](NC(=O)[C@H](CCC(=O)O)NC(=O)C1(NC(=O)[C@@H](NC(=O)C2(N)CCCC2)C(C)C)CCCC1)[C@@H](C)CC)C(=O)N[C@@H](Cc1c[nH]cn1)C(=O)N[C@@H](CCC(N)=O)C(=O)N[C@@H](CCCCNC(=N)N)C(=O)N[C@@H](C)C(=O)N[C@@H](CCCCN)C(=O)NC(C)(Cc1c(F)cccc1F)C(N)=O (stereo partly shown) [Seq. ID. 115] (H-[Ac5c]V[Ac5c]EIQ[ξαMePhe(2,6-F2)][Nle]HQ[hArg]AK[ξαMePhe(2,6-F2)]-NH2); 8
